Assay: Clearance in C57BL/6 mouse at 10 mg/kg, po and 1 mg/kg, iv
Type: ADME, organism-based
Conditions: in vivo
Reported clearance values are given for each entry in this list.
Enter your answer as a number in mL/min/kg; do not include the unit.

In the examples that follow, each entry is paired with its recorded clearance.
COMPOUND	clearance / mL/min/kg
COc1cccc(-c2ccc(CNC(=O)[C@H]3C[C@@H]3c3nc(C)no3)c3c2CCN(C(=O)NC(C)(C)C)C3)c1	73
COc1cccc(-c2ccc(CNC(=O)[C@@H]3C[C@H]3c3ccccc3)c3cnccc23)c1 (relative stereo)	142
Cc1noc([C@H]2C[C@@H]2C(=O)NCc2ccc(-c3cccc(OC(F)(F)F)c3)c3c2CN(C(=O)NC(C)(C)C)CC3)n1 (relative stereo)	26

For the next question, use this compound.
Record `COc1cccc(-c2ccc(CNC(=O)[C@@H]3C[C@H]3c3ccccc3)c3c2CCN(C(=O)NC(C)(C)C)C3)c1` , field clearance: 144
